Test system: SK-MEL-5 melanoma
PROTOCOL DETAILS: NCI tumour cell line growth inhibition, 48 h; in the data active means GI50 below about 0.43 µM; inactive means the rest
Labels: active, inactive

COc1ccc(C(=O)OC2C(OC3C(O)COC(O[C@H]4C[C@H]5[C@@H]6CC=C7C[C@@H](O)CC[C@]7(C)[C@H]6CC[C@]5(C)[C@H]4[C@H](C)C(=O)CCC(C)C)C3OC(=O)C(C)C)OCC(O)C2O)cc1 (stereo partly specified)	active
C=C(C)[C@@H]1CC[C@]2(C)[C@H](CC=C3[C@@H]4CC(C)(C)CC[C@]4(CO)CC[C@]32C)[C@@]1(C)CCCN	inactive
CCN(CC)c1ccc(CNc2cc(C)nc3ccc(OC)cc23)cc1	inactive
O=C(Nc1ccc(-n2ccc3c(NC(=O)c4ccccc4)ncnc32)cc1)Nc1ccc(Cl)c(C(F)(F)F)c1	inactive
Cc1cc(N2CCCCC2)nc(NCc2cc(Nc3ccnc4cc(Cl)ccc34)ccc2F)n1	inactive
O=C1c2cccc3c([N+](=O)[O-])ccc(c23)C(=O)N1CCCCl	inactive

====

Test system: 786-0 renal
PROTOCOL DETAILS: NCI tumour cell line growth inhibition, 48 h
Catalogue of molecules with associated GI50
ENDPOINT: GI50

CS(=O)(=O)c1nccc(-c2c(-c3cccc(OCc4ccccc4)c3)nc3sccn23)n1	12900 nM
CC/C=C\C[C@H](O)C/C=C1/C(=O)C=C[C@@H]1C/C=C\CCCC(=O)OCCS(=O)(=O)c1ccccc1	3220 nM
Cc1c(C)n(CC(O)CNC2CCCCC2C)c2ccccc12 (stereo not drawn)	12500 nM
C=C(C)[C@@H]1CC[C@]2(C(=O)N3CCN(C)CC3)CC[C@]3(C)[C@H](CC[C@@H]4[C@@]5(C)C/C(=C/c6ccncc6)[C@H](O)C(C)(C)[C@@H]5CC[C@]43C)[C@@H]12	2710 nM
Cc1ccccc1NC(=O)N/C(N)=N/c1nc(C)c(C)s1	652 nM
CN(C)c1ccc(/C=N/NC(=O)CSc2nc3sc4c(c3c(=O)n2-c2ccccc2)CCCCC4)cc1	8260 nM
COc1cc(-c2nn(-c3ccc(NC(=O)Nc4ccc(Cl)c(C(F)(F)F)c4)cc3)cc2-c2ccncc2)ccc1Cl	1800 nM
C/C(=N\NC(=O)c1cccc(S(=O)(=O)N2CCN(C)CC2)c1)c1cc(Cl)ccc1O	992 nM

====

Test system: ACHN renal
PROTOCOL DETAILS: NCI tumour cell line growth inhibition, 48 h
ENDPOINT: TGI

CCCCCCCCCCCCCCCCCCNc1ccn(C2OC(COP(=O)(O)OCC(COP(=O)(O)OCC3OC(n4cc(C)c(=O)[nH]c4=O)CC3N=[N+]=[N-])OCCCCCCCCCCCCCCCCCC)C(O)C2O)c(=O)n1 (stereo not drawn)	> 100 µM
CC(=O)NC1C(O)C(O)C(CO)OC1n1nc(SCc2ccccc2)c(=O)[nH]c1=O (stereo not drawn)	> 100 µM
CC(=O)O[C@H]1CC[C@@]2(C)C(=CC[C@@H]3C2CC[C@]2(C)C(=O)NC(=O)CC32)C1 (stereo partly drawn)	> 100 µM
Cc1cc(N(CCC#N)CCC#N)ccc1/C=C(\NC(=O)/C=C/c1ccccc1)NC(=O)Nc1ccccc1C	> 100 µM
COc1ccc(OC)c2sc(N3C(=O)/C(=C/c4ccc(SC)cc4)N=C3c3ccccc3)nc12	86.6 µM
NS(=O)(=O)c1ccc(C(=O)O)cc1	> 100 µM
Clc1ccc(/C=c2\nc(-c3ccccc3)n3c2nc2ccccc23)cc1	50.6 µM
CCCCCCCCCCCCCCCCOP(=O)(O)OP(=O)(O)OCC1OC(n2cnc3c(N)ncnc32)C(O)C1O (stereo not drawn)	> 100 µM

====

Test system: HL-60(TB) leukemia
PROTOCOL DETAILS: NCI tumour cell line growth inhibition, 48 h
Catalogue of molecules with associated TGI
ENDPOINT: TGI (µM)

C=C(c1ccccc1)[C@@]1(O)CCCC[C@H]1NC(c1ccccc1)c1ccccc1	5.95
C[C@]12CC[C@H](OC(=O)Cc3ccc(N(CCCl)CCCl)cc3)CC1CC[C@@H]1C2CC[C@]2(C)NC(=O)CCC12 (stereo not given in full)	6.06
O=c1[nH]c(=S)n(-c2cccc3ccccc23)c(O)c1/C=C1\C=Nc2ccccc21	5.27
CCCCN1C(=O)C2c3[nH]c4ccccc4c3C3CCCCC3C2C1=O (mixture of isomers)	29.1
S=C(Nc1ccc(Cl)cc1)c1ccc(CN2CCCCC2)s1	6.97

====

System: TK-10 renal
PROTOCOL DETAILS: NCI tumour cell line growth inhibition, 48 h
Where a SMILES comes first, the peptide text is derived from it. [ ]: non-standard residue; d: D form. The star is where a group is joined. Bn2Val = CC(C)[C@@H](C(=O)*)N(Cc1ccccc1)Cc1ccccc1; NHPiperonyl = c1cc2c(cc1CN*)OCO2; NMeV = CN[C@H](C(=O)O)C(C)C; dNMeA = CN[C@H](C)C(=O)O
Catalogue of compounds with associated TGI
ENDPOINT: TGI

Cc1cc2nn(C3CCCCO3)nc2cc1C (stereo unspecified)	> 100 µM
CC(C)[C@H](NC(=O)[C@H](C(C)C)N(Cc1ccccc1)Cc1ccccc1)C(=O)N(C)[C@H](C(=O)N1CCC[C@H]1C(=O)N(C)[C@H](C)C(=O)NCc1ccc2c(c1)OCO2)C(C)C (Bn2Val-V[NMeV]P[dNMeA]-NHPiperonyl)	> 100 µM
COc1cccc(-c2cc(=O)c3cc(C)c(C)c(C(=O)O)c3o2)c1	> 100 µM
Cn1ncc2c(=O)[nH]c(-c3ccccc3)nc21	> 100 µM
CC(=O)O[C@H]1CC[C@@]2(C)C(=CC[C@@H]3C2CC[C@]2(C)C(=O)NC(=O)CC32)C1 (stereo partly specified)	> 100 µM
C=C1CC(COc2ccc3c(C)c(Cl)c(=O)oc3c2)(c2ccccc2)OC1=O (stereo unspecified)	3.18 µM
C=CC(C)CCC(C/C=C(\C)CCCC(C)C)C(=C)CCCC(C)C (stereo unspecified)	> 100 µM
COc1ccc(C(=O)NNC(=O)c2nsc3ccccc23)cc1	> 100 µM
Nc1nc(Cl)cc(NCC2(CO)CC(CCCc3ccccc3)C2)n1 (stereo unspecified)	> 100 µM
COc1cc(C(=O)O)cc2c1[nH]c1ccccc12	> 25 µM
CCOc1ccccc1NC(=O)CSc1nnc(Cc2ccccc2)o1	> 100 µM
O=C(/C=C/c1ccc[nH]1)c1ccccc1	> 100 µM
CSc1n[nH]c2c1c(C)nn2-c1ccccc1	> 100 µM
C/C(=N\N)C(CN1CCCCC1)C(c1ccccc1)c1c(O)c2ccccc2oc1=O (stereo unspecified)	> 100 µM
NNC(=O)CC(=O)Nc1ccccc1Cl	> 100 µM
COC(=O)CCC(=O)Nc1cccc(C(F)(F)F)c1	> 100 µM
CC(=O)OC1COC(n2c(O)c(N=Nc3ccc([N+](=O)[O-])cc3)c3cc(Br)c([N+](=O)[O-])cc32)C(OC(C)=O)C1OC(C)=O (stereo unspecified)	> 100 µM
CCCCN1C(=O)C2c3[nH]c4ccccc4c3C3CCCCC3C2C1=O (mixture of isomers)	33.9 µM
CCCCCCCCCCCCCCCCOP(=O)(O)OP(=O)(O)OCC1OC(n2cnc3c(N)ncnc32)C(O)C1O (stereo unspecified)	> 100 µM
CC(C)NC1CCCCC2c3cc(F)ccc3[C@]12O (stereo partly specified)	> 100 µM
CCOc1cc(/C=N\O)cc(/C=N/O)c1O	> 100 µM
COc1ccc(Nc2[nH]n(C3=Nc4ccccc4Sc4ccccc43)c(=O)c2C#N)cc1	41 µM
CC1=CC[C@@H]2[C@@H](CC[C@@]2(C)O)C(C)(C)[C@H]1CC[C@@H]1[C@@]2(C)CC[C@@H](O)C(C)(C)O[C@@H]2CC[C@]1(C)O	> 100 µM
NCc1ccc(O)c(O)c1O	> 100 µM
C=C(C)[C@@H]1CC[C@]2(C(=O)N3CCN(C)CC3)CC[C@]3(C)[C@H](CC[C@@H]4[C@@]5(C)C/C(=C/c6ccncc6)[C@H](O)C(C)(C)[C@@H]5CC[C@]43C)[C@@H]12	89.4 µM
O=C(O)c1[nH]c(=O)[nH]c(=O)c1CN1CCCCC1	> 100 µM
NNC(=O)C(O)C(O)C(O)CO (stereo unspecified)	> 100 µM
Clc1cc2nc[nH]c2cc1Cl	> 100 µM
O=c1oc2cc(O)ccc2c(O)c1C(c1ccc2ccccc2c1)c1c(O)c2ccc(O)cc2oc1=O	> 100 µM
COc1ccc2c3c(ccc2c1)NC(C(=O)O)CC3 (stereo unspecified)	> 100 µM
Nc1ccc([As](=O)(O)O)cc1	> 100 µM
Cc1cc(Cl)ccc1NC(=O)C1C(=O)C(=O)N(c2ccc(Cl)cc2C)C1=O (stereo unspecified)	> 100 µM
Nc1nc2ccccc2c2[nH]c3ccccc3c12	4.18 µM
CCCCCCN(CCCCCC)C1=CC(=O)C(=O)c2ccccc21	36.1 µM
CC(C)(C)c1cc(O)c2c(c1O)C(=O)CCC2	> 100 µM
CCCCCCCCCCCCCCCCC(=O)NCC(=O)NCC(=O)NC(Cc1ccccc1)C(=O)Oc1ccc([N+](=O)[O-])cc1 (stereo unspecified)	> 100 µM
Cc1ccc2oc(=O)cc(CC(=O)O)c2c1	> 100 µM
C=C(c1ccccc1)[C@@]1(O)CCCC[C@H]1NC(c1ccccc1)c1ccccc1	32.5 µM
COc1ccc(C(=C(C#N)C#N)c2ccc(OC)cc2)cc1	> 100 µM
CCOc1ccc(NC(=O)/C(Cc2nc3ccccc3[nH]c2=O)=N\O)cc1	> 100 µM
Clc1ccc(-c2c3nc(c(-c4ccc(Cl)cc4)c4ccc([nH]4)c(-c4ccc(Cl)cc4)c4nc(c(-c5ccc(Cl)cc5)c5ccc2[nH]5)C=C4)C=C3)cc1	> 100 µM
